# target.entity: Alkaline phosphatase, placental type (Homo sapiens) (UniProt P05187)
# test.method.notes: inhibitors of placental alkaline phosphatase – biochemical, human PLAP isozyme, selectivity assay for human IAP inhibitor project, SAR follow-up (AID 493138)
# stated.conditions: purified placental alkaline phosphatase, enzyme activity
The source made the active and inactive calls. No rule for the calls is given here.
# IC50 annotations

Consider the worked cases shown below.
[[record]]
smiles_notation = "COc1ccc(NC(=S)NCCC(c2ccccc2)c2ccccc2)cc1"
target_entity = "Alkaline phosphatase, placental type (Homo sapiens) (UniProt P05187)"
observed_result = "> 100 µM (inactive)"

[[record]]
smiles_notation = "COc1ccc(C=NNC(=S)Nc2ccccc2[N+](=O)[O-])cc1O"
target_entity = "Alkaline phosphatase, placental type (Homo sapiens) (UniProt P05187)"
observed_result = "> 100 µM (inactive)"


Now, please, on to the next compound.
Lab note: measured IC50 of "Cc1ccc(Cl)cc1Nc1nc(-c2ccc(O)c(O)c2)cs1" was > 100 µM (inactive)

###

# target.entity: Alkaline phosphatase, placental type (Homo sapiens)
# test.method.notes: inhibitors of placental alkaline phosphatase – biochemical, human PLAP isozyme, selectivity assay for human IAP inhibitor project, SAR follow-up (AID 493138)
# stated.conditions: purified placental alkaline phosphatase, enzyme activity
Activity calls are given as the source filed them. No rule for the calls is given here.
Hi there, use one of these labels in your reply, thanks! active, inactive

Would you please look over these solved cases?
[[record]]
compound = "FC(F)(F)c1cccc(NC(=S)NCCC(c2ccccc2)c2ccccc2)c1"
assigned_category = "inactive"

[[record]]
compound = "CCOc1cc(C=NNC(=S)NC2CCCCC2)ccc1O"
assigned_category = "inactive"

[[record]]
compound = "Cn1c(=S)n(N=Cc2ccc3c(c2)OCO3)c2ccccc21"
assigned_category = "inactive"

[[record]]
compound = "Cc1ccc(Nc2nc(-c3ccc(O)cc3O)cs2)cc1"
assigned_category = "inactive"


Q: Per the records of this test, what outcome belongs to "Cc1cccc(Nc2nc(-c3ccc(O)c(O)c3)cs2)c1" ?
A: inactive

Q: Assay outcome for Cc1ccc(-c2ccc(/C=N/N=C3\NC(=O)C(CC(=O)O)S3)o2)c([N+](=O)[O-])c1 (stereo not drawn) : what was it?
A: inactive

Q: Record request — test call for "COc1cc(C(=O)NNC(=S)Nc2ccc(S(N)(=O)=O)cc2)cc(OC)c1OC"
A: inactive

Q: Query: recorded result category for "O=S(=O)(c1ccc(NC(=S)N/N=C/c2ccc(O)c(O)c2)cc1)N1CCOCC1" in this test
A: inactive

Q: Lab log entry: "Cc1cccc(Nc2nc(-c3ccc(O)c(C(N)=O)c3)cs2)c1" — outcome as called in the assay?
A: inactive

Q: For "O=S(=O)(c1ccc(NC(=S)N/N=C/c2ccc(O)c(O)c2O)cc1)N1CCOCC1" , what call appears in the results of this test?
A: inactive

Q: Recorded test call requested for "COc1cc([N+](=O)[O-])ccc1NC(=S)NNC(=O)c1ccc2c(c1)OCO2"
A: inactive

Q: What classification did "Oc1ccc(Nc2nc(-c3ccc(O)c(O)c3)cs2)cc1" end up with in this test?
A: inactive

###

# target.entity: Alkaline phosphatase, placental type (Homo sapiens)
# test.method.notes: inhibitors of placental alkaline phosphatase – biochemical, human PLAP isozyme, selectivity assay for human IAP inhibitor project, SAR follow-up (AID 493138)
# stated.conditions: purified placental alkaline phosphatase, enzyme activity
Calls of active or inactive are those of the source. No rule for the calls is given here.
The reply should name one outcome from active, inactive

Q: # fetch the recorded call for "COc1ccc(Cl)cc1Nc1nc(-c2ccc(O)c(O)c2)cs1" here
A: inactive

Q: What call does the record list for "Cc1cccc(NC(=S)NN=Cc2ccc3c(c2)OCO3)c1" ?
A: inactive

Q: What was the test verdict on "NS(=O)(=O)c1ccc(Nc2nc(-c3ccc(O)c(O)c3)cs2)cc1" ?
A: active

Q: Dear all, I need the recorded test outcome for "O=S(=O)(Nc1ncccn1)c1ccc(NC(=S)NCCC(c2ccccc2)c2ccccc2)cc1" , thank you.
A: inactive

Q: Given "Cc1ccc(Nc2nc(-c3ccc(O)c(O)c3)cs2)cc1" , state the outcome it received in this test.
A: inactive

Q: What call does the record list for "Cc1cccc(C)c1NC(=S)N/N=C/c1ccc(O)c(O)c1O" ?
A: inactive

Q: Look up the recorded call for "Oc1ccc(-c2csc(Nc3cccc4ccccc34)n2)cc1O" in this test.
A: inactive

Q: # fetch the recorded call for "COc1ccc(-c2csc(Nc3cccc4ccccc34)n2)cc1" here
A: inactive

Q: How did this test come out for COc1cc(C=NN=C2SC(CC(=O)O)C(=O)N2c2ccc(O)cc2)ccc1O (stereo unspecified) ?
A: inactive

Q: Test call for this compound, please: "CC(=NNC(=S)Nc1ccccc1)c1ccc2c(c1)OCO2"
A: inactive

Q: GET /call?item= "CCOc1ccc(Nc2nc(-c3ccc(O)c(O)c3)cs2)cc1" returns the recorded outcome of this test.
A: inactive
